Listed here: items and their measured classification of cell line as Low(1), Medium(2), High(3) sensitivity to compound.
# Test system: 60 cancer cell lines (NCI 60 cancer cell line series)
# PROCEDURE_DETAILS: NCI-DTP in vitro cancer screen, sulforhodamine B (SRB) growth inhibition, 48 hour exposure
# Format: cell-based, human
# CONDITION: Breast MDA-MB-435 CL5011
Where a name gives a salt, the structure may show the parent alone.

Examples from the recorded data:
NC(=O)NO [Hydroxyurea]    1
CC(=O)O[C@H]1C(=O)[C@@]2(C)[C@H]([C@H](OC(=O)c3ccccc3)[C@]3(O)C[C@H](OC(=O)[C@H](O)[C@@H](NC(=O)c4ccccc4)c4ccccc4)C(C)=C1C3(C)C)[C@]1(OC(C)=O)CO[C@@H]1C[C@@H]2O [TAXOL, paclitaxel, reference compound]    3
COc1cc([C@@H]2c3cc4c(cc3[C@@H](O[C@@H]3O[C@@H]5CO[C@@H](C)O[C@H]5[C@H](O)[C@H]3O)[C@H]3COC(=O)[C@H]23)OCO4)cc(OC)c1O [Etoposide]    2
Sc1ncnc2nc[nH]c12 [6-mercaptopurine]    2
O=c1[nH]cc(F)c(=O)[nH]1 [5-Fluorouracil]    2

Task: Requested read-out classification of cell line as Low(1), Medium(2), High(3) sensitivity to compound, target or system 60 cancer cell lines (NCI 60 cancer cell line series), entry COc1cccc2c1C(=O)c1c(O)c3c(c(O)c1C2=O)C[C@@](O)(C(C)=O)C[C@@H]3O[C@H]1C[C@H](N)[C@H](O)[C@H](C)O1 [Daunorubicin]
Output: 1

Task: Requested read-out classification of cell line as Low(1), Medium(2), High(3) sensitivity to compound, target or system 60 cancer cell lines (NCI 60 cancer cell line series), entry CC[C@]1(O)C[C@H]2CN(CCc3c([nH]c4ccccc34)[C@@](C(=O)OC)(c3cc4c(cc3OC)N(C=O)[C@H]3[C@@](O)(C(=O)OC)[C@H](OC(C)=O)[C@]5(CC)C=CCN6CC[C@]43[C@@H]65)C2)C1 [Vincristine sulfate]
Output: 2

Task: Requested read-out classification of cell line as Low(1), Medium(2), High(3) sensitivity to compound, target or system 60 cancer cell lines (NCI 60 cancer cell line series), entry CS(=O)(=O)OCCCCOS(C)(=O)=O [Busulfan]
Output: 1

Task: Requested read-out classification of cell line as Low(1), Medium(2), High(3) sensitivity to compound, target or system 60 cancer cell lines (NCI 60 cancer cell line series), entry COc1cc([C@@H]2c3cc4c(cc3[C@@H](O[C@@H]3O[C@@H]5CO[C@@H](c6cccs6)O[C@H]5[C@H](O)[C@H]3O)[C@H]3COC(=O)[C@H]23)OCO4)cc(OC)c1O [Teniposide]
Output: 2

Task: Requested read-out classification of cell line as Low(1), Medium(2), High(3) sensitivity to compound, target or system 60 cancer cell lines (NCI 60 cancer cell line series), entry O=C(O)CCCc1ccc(N(CCCl)CCCl)cc1 [Chlorambucil]
Output: 1

Task: Requested read-out classification of cell line as Low(1), Medium(2), High(3) sensitivity to compound, target or system 60 cancer cell lines (NCI 60 cancer cell line series), entry COc1cccc2c1C(=O)c1c(O)c3c(c(O)c1C2=O)C[C@@](O)(C(=O)CO)C[C@@H]3O[C@H]1C[C@H](N)[C@H](O)[C@H](C)O1 [Adriamycin]
Output: 2

Task: Requested read-out classification of cell line as Low(1), Medium(2), High(3) sensitivity to compound, target or system 60 cancer cell lines (NCI 60 cancer cell line series), entry N[C@@H](Cc1ccc(N(CCCl)CCCl)cc1)C(=O)O [Melphalan]
Output: 2

Task: Requested read-out classification of cell line as Low(1), Medium(2), High(3) sensitivity to compound, target or system 60 cancer cell lines (NCI 60 cancer cell line series), entry CC[C@]1(O)C[C@@H]2CN(CCc3c([nH]c4ccccc34)[C@@](C(=O)OC)(c3cc4c(cc3OC)N(C)[C@H]3[C@@](O)(C(=O)OC)[C@H](OC(C)=O)[C@]5(CC)C=CCN6CC[C@]43[C@@H]65)C2)C1 [Vinblastine sulfate]
Output: 3

Task: Requested read-out classification of cell line as Low(1), Medium(2), High(3) sensitivity to compound, target or system 60 cancer cell lines (NCI 60 cancer cell line series), entry O=C1c2c(O)ccc(O)c2C(=O)c2c(NCCNCCO)ccc(NCCNCCO)c21 [Mitoxantrone]
Output: 1
